src = patent US12588678B2

Tested on: Tetranychus cinnabarinus mite eggs
Experiment: Activity against mite eggs, dipping method on bean seedling leaves
Format: in vivo
Details: Tetranychus cinnabarinus, 96 h, read-out: mortality of mite eggs (%), 1 mg/L; checked after 4 days
From the text: The assay examples are used to illustrate the acaricidal activity against Tetranychus cinnabarinus (mortality of mite larvae and mortality of mite eggs) of the compounds having the structure represented by formula (I), and the results are shown in tables 1 to 9, where mortality of mite larvae % =(number of dead mite larvae applied/total number of mite larvae applied)×100, and mortality of mite eggs %= (number of dead mite eggs applied/total number of mite eggs applied)×100. […]
Binary call on mortality at 1 µg/mL with cut-off 50%: strictly below means MET, and equality or higher means NOT MET.

Prompt: Is the reported mortality at 1 µg/mL for CCCOCc1ccc(C2COC(c3c(F)cccc3F)=N2)cc1 (centres unmarked) [Compound R2-3] strictly below 50%?
Response: NOT MET

Prompt: Is the reported mortality at 1 µg/mL for FCCOCc1ccc(C2COC(c3c(F)cccc3F)=N2)cc1 (centres unmarked) [Compound R2-4] strictly below 50%?
Response: NOT MET

Prompt: Is the reported mortality at 1 µg/mL for N#Cc1ccc(S(=O)(=O)Oc2ccc(C3COC(c4c(F)cccc4F)=N3)cc2)cc1 (centres unmarked) [Compound R3-22] strictly below 50%?
Response: MET

Prompt: Is the reported mortality at 1 µg/mL for CS(=O)(=O)Oc1ccc(C2COC(c3c(F)cccc3F)=N2)cc1 (centres unmarked) [Compound R3-1] strictly below 50%?
Response: NOT MET

Prompt: Is the reported mortality at 1 µg/mL for Fc1cccc(F)c1C1=NC(c2ccc(Cn3ccc4cc(Br)ccc43)cc2)CO1 (centres unmarked) [Compound R1-24] strictly below 50%?
Response: MET

###

tested on: Tetranychus cinnabarinus mite eggs; assay: Activity against mite eggs, dipping method on bean seedling leaves; format: in vivo; details: Tetranychus cinnabarinus, 96 h, read-out: mortality of mite eggs (%), 1 mg/L; checked after 4 days
Exercise: state measured mortality at 1 µg/mL for each of the compounds provided.
Quick reminder: number only, in %, skip the unit.

Briefly, mortality at 1 µg/mL measured for COCc1ccc(C2COC(c3c(F)cccc3F)=N2)cc1 (stereo not drawn) [Compound R2-1] : 97

Briefly, mortality at 1 µg/mL measured for C=C(C)COCc1ccc(C2COC(c3c(F)cccc3F)=N2)cc1 (stereo not drawn) [Compound R2-6] : 100

Briefly, mortality at 1 µg/mL measured for Fc1cccc(F)c1C1=NC(c2ccc(CN3CCCCCCC3)cc2)CO1 (stereo not drawn) [Compound R1-3] : 55

Briefly, mortality at 1 µg/mL measured for CCOCc1ccc(C2COC(c3c(F)cccc3F)=N2)cc1 (stereo not drawn) [Compound R2-2] : 95

Briefly, mortality at 1 µg/mL measured for C#CCCOCc1ccc(C2COC(c3c(F)cccc3F)=N2)cc1 (stereo not drawn) [Compound R2-7] : 90

Briefly, mortality at 1 µg/mL measured for O=S(=O)(Oc1ccc(C2COC(c3c(F)cccc3F)=N2)cc1)c1ccc(C(F)(F)F)cc1 (stereo not drawn) [Compound R3-13] : 70

Briefly, mortality at 1 µg/mL measured for Fc1cccc(F)c1C1=NC(c2ccc(COc3ccc(Cl)cc3)cc2)CO1 (stereo not drawn) [Compound R2-19] : 90

Briefly, mortality at 1 µg/mL measured for Fc1ccc(OCc2ccc(C3COC(c4c(F)cccc4F)=N3)cc2)cc1 (stereo not drawn) [Compound R2-18] : 90

Briefly, mortality at 1 µg/mL measured for Fc1cccc(F)c1C1=NC(c2ccc(Cn3ccc4cc(Cl)ccc43)cc2)CO1 (stereo not drawn) [Compound R1-23] : 60

Briefly, mortality at 1 µg/mL measured for Fc1cccc(F)c1C1=NC(c2ccc(COc3ccccn3)cc2)CO1 (stereo not drawn) [Compound R2-12] : 65

Briefly, mortality at 1 µg/mL measured for Fc1cccc(F)c1C1=NC(c2ccc(Cn3ccc4ccccc43)cc2)CO1 (stereo not drawn) [Compound R1-15] : 90

Briefly, mortality at 1 µg/mL measured for O=S(=O)(Oc1ccc(C2COC(c3c(F)cccc3F)=N2)cc1)c1ccc(I)cc1 (stereo not drawn) [Compound R3-10] : 60

Briefly, mortality at 1 µg/mL measured for Fc1cccc(F)c1C1=NC(c2ccc(COc3ccc4ccccc4c3)cc2)CO1 (stereo not drawn) [Compound R2-24] : 80

Briefly, mortality at 1 µg/mL measured for Fc1cccc(F)c1C1=NC(c2ccc(COc3ccc(C(F)(F)F)cc3)cc2)CO1 (stereo not drawn) [Compound R2-23] : 85

Briefly, mortality at 1 µg/mL measured for O=S(=O)(Oc1ccc(C2COC(c3c(F)cccc3F)=N2)cc1)c1ccc(F)cc1 (stereo not drawn) [Compound R3-7] : 60

Briefly, mortality at 1 µg/mL measured for Fc1cccc(F)c1C1=NC(c2ccc(CN3CCc4ccccc43)cc2)CO1 (stereo not drawn) [Compound R1-14] : 40

Briefly, mortality at 1 µg/mL measured for Cc1ccc2ccn(Cc3ccc(C4COC(c5c(F)cccc5F)=N4)cc3)c2c1 (stereo not drawn) [Compound R1-17] : 40

Briefly, mortality at 1 µg/mL measured for CCCS(=O)(=O)Oc1ccc(C2COC(c3c(F)cccc3F)=N2)cc1 (stereo not drawn) [Compound R3-3] : 90
